Parameter log10 of IC50: see the listing below.
target: NDM-1 (Klebsiella pneumoniae); experiment: Enzyme activity: IC50 in fluorescence assay with cephalosporin substrate FC5; type: biochemical; conditions: 50 pM NDM-1, 1.5 μM FC5, 10 min pre-incubation
Sequence (C7C422 29-270, looked up): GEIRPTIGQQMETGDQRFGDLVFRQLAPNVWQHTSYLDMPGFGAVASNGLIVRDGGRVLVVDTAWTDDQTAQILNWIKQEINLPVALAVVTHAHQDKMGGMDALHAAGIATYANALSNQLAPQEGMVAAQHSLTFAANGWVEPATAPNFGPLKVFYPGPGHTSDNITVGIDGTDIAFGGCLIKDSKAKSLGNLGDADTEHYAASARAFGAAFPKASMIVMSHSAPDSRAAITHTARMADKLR
Please note: log10 values; quantity IC50; unit µM.

## Task For the compound O=C(O)c1[nH]c2c(c1-c1ccc(Cl)cc1)CCc1ccccc1-2 , give its reported log10 of IC50.
## Result -2.15

## Task Using the record for O=C(O)c1[nH]c2c(c1-c1cccc(F)c1)CCc1ccccc1-2 , state its measured log10 of IC50.
## Result -1.10

Next:
## Task Supply measured log10 of IC50 of COc1cc(OC)cc(-c2c(C(=O)O)[nH]c3c2CCc2ccccc2-3)c1 in your reply.
## Result -1.31

## Task Give me measured log10 of IC50, please, for this compound: O=C(O)c1[nH]c2c(c1-c1cc(F)cc(Cl)c1)CCc1ccccc1-2
## Result -2.05

## Task Please give the documented log10 of IC50 of O=C(O)c1[nH]c2c(c1-c1cc(Cl)cc(Cl)c1)CCc1ccccc1-2
## Result -1.44

---

system: Klebsiella pneumoniae ATCC BAA-2146; assay: Checkerboard synergy assay in combination with Meropenem; format: cell-based; conditions: compound at 8 μg/mL; K. pneumoniae ATCC BAA-2146
endpoint-label: Fold reduction in meropenem MIC in the presence of compounds (μg/mL) 8 (fold)
Give the value in fold but do not write fold after it.

Would you please look over these solved cases?
## Task Supply Fold reduction in meropenem MIC in the presence of compounds (μg/mL) 8 value. Item: COc1cc(OC)cc(-c2c(C(=O)O)[nH]c3c2CCc2ccccc2-3)c1
## Result 4

## Task Provide one value: measured Fold reduction in meropenem MIC in the presence of compounds (μg/mL) 8 of O=C(O)c1[nH]c2c(c1-c1ccc(Cl)cc1)CCc1ccccc1-2
## Result 4

## Task Quickly give me recorded Fold reduction in meropenem MIC in the presence of compounds (μg/mL) 8 for COc1cc(Cl)cc(-c2c(C(=O)O)[nH]c3c2CCc2ccccc2-3)c1
## Result 8

## Task Provide only the value of recorded Fold reduction in meropenem MIC in the presence of compounds (μg/mL) 8 for O=C(O)c1[nH]c2c(c1-c1cc(F)cc(F)c1)CCc1ccccc1-2
## Result 2

## Task Fill in Fold reduction in meropenem MIC in the presence of compounds (μg/mL) 8 for record O=C(O)c1[nH]c2c(c1-c1cccc(Cl)c1)CCc1ccccc1-2
## Result 4

Next:
## Task Quote Fold reduction in meropenem MIC in the presence of compounds (μg/mL) 8 reported for COc1ccc(-c2c(C(=O)O)[nH]c3c2CCc2ccccc2-3)cc1 please.
## Result 2

## Task Consider the compound Cc1cc(Cl)cc(-c2c(C(=O)O)[nH]c3c2CCc2ccccc2-3)c1 and give its recorded Fold reduction in meropenem MIC in the presence of compounds (μg/mL) 8.
## Result 4

## Task Specify Fold reduction in meropenem MIC in the presence of compounds (μg/mL) 8 for CC(C)(C)c1ccc(-c2c(C(=O)O)[nH]c3c2CCc2ccccc2-3)cc1 and stop.
## Result 4

## Task Give Fold reduction in meropenem MIC in the presence of compounds (μg/mL) 8 for O=C(O)c1[nH]c2c(c1-c1ccc(Cl)cc1Cl)CCc1ccccc1-2
## Result 4

## Task Report Fold reduction in meropenem MIC in the presence of compounds (μg/mL) 8, nothing else, for this compound: Cc1cc(C)cc(-c2c(C(=O)O)[nH]c3c2CCc2ccccc2-3)c1
## Result 4

## Task Read off the recorded Fold reduction in meropenem MIC in the presence of compounds (μg/mL) 8 for O=C(O)c1[nH]c2c(c1-c1ccccc1Cl)CCc1ccccc1-2
## Result 4

## Task Consider the compound O=C(O)c1[nH]c2c(c1-c1cccc(F)c1)CCc1ccccc1-2 and give its recorded Fold reduction in meropenem MIC in the presence of compounds (μg/mL) 8.
## Result 4

## Task For the compound O=C(O)c1[nH]c2c(c1-c1cccc(Cl)c1Cl)CCc1ccccc1-2 , report Fold reduction in meropenem MIC in the presence of compounds (μg/mL) 8.
## Result 2

## Task Please list Fold reduction in meropenem MIC in the presence of compounds (μg/mL) 8 recorded for the compound O=C(O)c1[nH]c2c(c1-c1ccccc1F)CCc1ccccc1-2
## Result 4

## Task Could you please provide reported Fold reduction in meropenem MIC in the presence of compounds (μg/mL) 8 for O=C(O)c1[nH]c2c(c1-c1cncc(F)c1)CCc1ccccc1-2 ? Thanks!
## Result 2

## Task Provide only the value of recorded Fold reduction in meropenem MIC in the presence of compounds (μg/mL) 8 for O=C(O)c1[nH]c2c(c1-c1cncc(Cl)c1)CCc1ccccc1-2
## Result 4

## Task Look up Fold reduction in meropenem MIC in the presence of compounds (μg/mL) 8 of COc1ccccc1-c1c(C(=O)O)[nH]c2c1CCc1ccccc1-2 and report it.
## Result 4

## Task Retrieve Fold reduction in meropenem MIC in the presence of compounds (μg/mL) 8 measured for COc1ccc(F)cc1-c1c(C(=O)O)[nH]c2c1CCc1ccccc1-2 and print it.
## Result 4

## Task Specify reported Fold reduction in meropenem MIC in the presence of compounds (μg/mL) 8 for the compound shown: Cc1ccc(-c2c(C(=O)O)[nH]c3c2CCc2ccccc2-3)c(F)c1
## Result 2

---

system: Klebsiella pneumoniae ATCC BAA-2146; test: Checkerboard synergy assay in combination with Imipenem; format: cell-based; settings: compound at 4 μg/mL; K. pneumoniae ATCC BAA-2146
endpoint-label: Fold reduction in Imipenem MIC in the presence of compounds (μg/mL) 4 (fold)
The reply should be a number in fold, with the unit left off.

## Task State measured Fold reduction in Imipenem MIC in the presence of compounds (μg/mL) 4 of the compound O=C(O)c1[nH]c2c(c1-c1cccc(Cl)c1Cl)CCc1ccccc1-2 [Example 50] with Klebsiella pneumoniae ATCC BAA-2146.
## Result 2

## Task Look up Klebsiella pneumoniae ATCC BAA-2146 data: Fold reduction in Imipenem MIC in the presence of compounds (μg/mL) 4 of O=C(O)c1[nH]c2c(c1-c1cccc(F)c1)CCc1ccccc1-2 [Example 42] , then report it.
## Result 4

Now, please, on to the next compound.
## Task Consider the compound O=C(O)c1[nH]c2c(c1-c1ccc(Cl)cc1Cl)CCc1ccccc1-2 [Example 46] tested on Klebsiella pneumoniae ATCC BAA-2146; state its Fold reduction in Imipenem MIC in the presence of compounds (μg/mL) 4.
## Result 4

---

Tested on: Klebsiella pneumoniae ATCC BAA-2146
Assay: Checkerboard synergy assay in combination with Imipenem
Type: cell-based
Settings: compound at 8 μg/mL; K. pneumoniae ATCC BAA-2146
From the text: The strain included in the study was Klebsiella pneumoniae ATCC BAA-2146 (Himedia®, India) with presence of New Delhi metallo-β-lactamase (NDM-1) gene. The quality control reference strains Escherichia coli ATCC 25922 and Pseudomonas aeruginosa ATCC 27853 were procured from Himedia®, India. The fold modulation activity of test compounds, in combination with Imipenem or Meropenem, was checked against Klebsiella pneumoniae ATCC BAA-2146 strain by the broth-microdilution checkerboard synergy assay. […]
endpoint-label: Fold reduction in Imipenem MIC in the presence of compounds (μg/mL) 8 (fold)
Kindly provide the numeric value in fold only, without the unit symbol.

Known results for compounds:
## Task Consider the compound O=C(O)c1[nH]c2c(c1-c1cccc(F)c1F)CCc1ccccc1-2 and give its recorded Fold reduction in Imipenem MIC in the presence of compounds (μg/mL) 8.
## Result 4

## Task Supply Fold reduction in Imipenem MIC in the presence of compounds (μg/mL) 8 value. Item: O=C(O)c1[nH]c2c(c1-c1ccccc1F)CCc1ccccc1-2
## Result 4

## Task Identify the reported Fold reduction in Imipenem MIC in the presence of compounds (μg/mL) 8 for the following entry. Cc1cc(C)cc(-c2c(C(=O)O)[nH]c3c2CCc2ccccc2-3)c1
## Result 4

## Task Answer with the recorded Fold reduction in Imipenem MIC in the presence of compounds (μg/mL) 8 of Cc1cc(Cl)cc(-c2c(C(=O)O)[nH]c3c2CCc2ccccc2-3)c1 only.
## Result 8

## Task Recall and state the measured Fold reduction in Imipenem MIC in the presence of compounds (μg/mL) 8 for COc1ccccc1-c1c(C(=O)O)[nH]c2c1CCc1ccccc1-2 .
## Result 4

Consider now this further compound.
## Task Return value of Fold reduction in Imipenem MIC in the presence of compounds (μg/mL) 8 for input O=C(O)c1[nH]c2c(c1-c1cc(Cl)c(Cl)c(Cl)c1)CCc1ccccc1-2 , no commentary.
## Result 8

---

system: Klebsiella pneumoniae ATCC BAA-2146; experiment: Checkerboard synergy assay in combination with Meropenem; type: cell-based; conditions: compound at 8 μg/mL; K. pneumoniae ATCC BAA-2146
endpoint-label: Fold reduction in meropenem MIC in the presence of compounds (μg/mL) 8 (fold)
Give your result in fold as a bare value.

## Task Fill in Fold reduction in meropenem MIC in the presence of compounds (μg/mL) 8 for record O=C(O)c1[nH]c2c(c1-c1ccncc1)CCc1ccccc1-2
## Result 4

New cases:
## Task Provide measured Fold reduction in meropenem MIC in the presence of compounds (μg/mL) 8 value, entry: O=C(O)c1[nH]c2c(c1-c1cccc(F)c1F)CCc1ccccc1-2
## Result 4

## Task Look up and state reported Fold reduction in meropenem MIC in the presence of compounds (μg/mL) 8 for COc1ccc(Cl)cc1-c1c(C(=O)O)[nH]c2c1CCc1ccccc1-2
## Result 4

## Task Consider the molecule O=C(O)c1[nH]c2c(c1-c1ccc(F)c(F)c1)CCc1ccccc1-2 and give its recorded Fold reduction in meropenem MIC in the presence of compounds (μg/mL) 8.
## Result 4

## Task Give Fold reduction in meropenem MIC in the presence of compounds (μg/mL) 8 for O=C(O)c1[nH]c2c(c1-c1cc(Cl)c(Cl)c(Cl)c1)CCc1ccccc1-2
## Result 8

## Task Give the reported Fold reduction in meropenem MIC in the presence of compounds (μg/mL) 8 for this molecule. O=C(O)c1[nH]c2c(c1-c1cc(Cl)cc(Cl)c1)CCc1ccccc1-2
## Result 8

## Task Tell me Fold reduction in meropenem MIC in the presence of compounds (μg/mL) 8 reported for COc1cc(F)ccc1-c1c(C(=O)O)[nH]c2c1CCc1ccccc1-2
## Result 4
